inhibition for assorted molecules
Test: M. tuberculosis growth inhibition, HTS (AID 449762);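 further: bacterial growth assessed after seven days of incubation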
Settings: M. tuberculosis H37Rv growth inhibition, 7H9 media; at 25 µM; stronger effect = higher value
About 1,900 (0.58%) of roughly 330,000 compounds were called active. Not shown: some 4% with an inconclusive outcome. Only a sample is shown. Potency and affinity values are given separately.
experimental.endpoint: inhibition (%)

In [3]: df
Out[3]:
                                    molecule  experimental_endpoint  measurement_unit  readout_number
 0         COc1ccc(Cl)cc1NC(=O)Nc1ccc(Br)cn1             inhibition                 %            5.18
 1       CCN(CC)C(=O)Cc1c(OC)ccc2cc(Br)ccc12             inhibition                 %           -2.55
 2         Cc1ccc(-n2nc(CC#N)c(C#N)c2N)cc1Cl             inhibition                 %           -3.34
 3  CC(CCN1CCC(n2nccc2NC(=O)c2ccccc2Cl)CC1)c1ccccc1 (stereo not given)             inhibition                 %            15.6
 4      COc1ccc(Nc2cc(Nc3cccc(OC)c3)ncn2)cc1             inhibition                 %             0.6
 5  COC(=O)c1sc(N)c(C(=O)OC)c1COC(=O)C1CC(=O)N(Cc2ccco2)C1 (stereo not given)             inhibition                 %           -7.71
 6  COc1ccc(NS(=O)(=O)c2cccc(NC(=O)CNC(C)=O)c2)cc1             inhibition                 %            3.07
 7  Cc1cc(C)cc(NC(=O)c2cccc(C(=O)Nc3cc(C)cc(C)c3)n2)c1             inhibition                 %            5.97
 8  C[C@H](CO)N1C[C@H](C)[C@@H](CN(C)S(C)(=O)=O)Oc2c(NC(=O)C3CC3)cccc2C1=O             inhibition                 %            1.46
 9                COc1cc(CSC)nc(-c2ccccc2)n1             inhibition                 %           -6.71
10  COc1cc2c(cc1NC(=O)CN1CCN(S(=O)(=O)c3ccc(C)cc3)CC1)oc1ccccc12             inhibition                 %           -6.72
11  CC1CCC(C(C)C)C(OC(=O)COC(=O)c2ccccc2N)C1 (stereo not given)             inhibition                 %            2.86
12  Cc1c(-n2cc(C(=O)O)c(=O)c3cc(F)c(N4CCCC4)c(F)c32)c(=O)n(-c2ccccc2)n1C             inhibition                 %            5.31
13  CN1C(=O)N(C)C(=O)C2(Cc3cc(N)ccc3N3CCN(c4ccccc4F)CC32)C1=O (stereo not given)             inhibition                 %           -0.78
14       COC(=O)c1cccc(NC(=O)CSc2nnc(C)o2)c1             inhibition                 %             3.7
15                  COc1ncnc2c1cnn2-c1ccccc1             inhibition                 %            7.17
16         CSc1nsc(SCC(=O)Nc2ccccc2C(N)=O)n1             inhibition                 %            2.11
17  O=S(=O)(NCc1cc(-c2ccc(Cl)cc2)no1)c1ccc(Cl)cc1             inhibition                 %           -3.48
18                    O=c1ccc(=O)n2n1CC(O)C2             inhibition                 %            1.79
19          N#Cc1ccccc1COC(=O)CCC(=O)c1cccs1             inhibition                 %            5.44
20           Cc1ccc(/C=N/NC(=O)c2csc(C)c2)o1             inhibition                 %            4.06
21       Cc1ccc(NC(=O)C2CCN(c3cnccn3)CC2)cc1             inhibition                 %           -0.63
22  COc1cc(NC(=O)c2cccs2)c(C(=O)OCC(=O)NCc2ccccc2)cc1OC             inhibition                 %            -0.2
23  Cc1cc(C)c(NC(=O)c2cn3c4c(c(N5CCN(C)CC5)c(F)cc4c2=O)OCC3C)c(C)c1 (stereo not given)             inhibition                 %             9.2
24  CCC(=O)Oc1c(S(=O)(=O)c2ccc(C)cc2)c(C)nn1C(C)(C)C             inhibition                 %            11.5
25  O=C(CCNC(=O)N1CC(=O)Nc2ccccc21)Nc1ccc(F)c(Cl)c1             inhibition                 %            1.86
26            CC(=O)NCc1cc(-c2ccc(Cl)cc2)no1             inhibition                 %           -6.41
27  OC(COCc1ccc(Cl)cc1)CN1CCCCC1 (stereo not given)             inhibition                 %            1.29
28  Fc1ccc2cnc(-c3ccccc3)c(-c3ccc(C(F)(F)F)cc3)c2c1             inhibition                 %            39.5
29  CC(=O)N1CCN(C(=O)CN2C(=O)NC(C)(c3ccc4ccccc4c3)C2=O)CC1 (stereo not given)             inhibition                 %            6.21
30  CCOC(=O)c1ccc(N=Cc2nc(-c3ccccc3)oc2OC(C)=O)cc1             inhibition                 %            39.2
31        COc1ccccc1OCC(=O)Nc1ccc(C(N)=O)cc1             inhibition                 %           -3.41
32  CCc1ccc(NC(=O)C(NS(=O)(=O)c2ccc3c(c2)CCN3C(C)=O)C(C)C)cc1 (stereo not given)             inhibition                 %            0.33
33                Fc1ccc(Nc2ncnc3ccccc23)cc1             inhibition                 %             4.5
34                    Cn1c(/C=N/O)nc2ccccc21             inhibition                 %           -1.93
35  COC(=O)c1cc(N=Cc2c(O)c3ccccc3oc2=O)cc(C(=O)OC)c1             inhibition                 %           -16.3
36  CCC(=NCc1cccnc1)c1c(O)n(Cc2ccccc2)c(=O)[nH]c1=O             inhibition                 %            -0.2
37  CCC1CCCCN1C(=O)c1noc(C(C)C)c1[N+](=O)[O-] (stereo not given)             inhibition                 %            3.49
38  COc1ccc(-c2[nH]ncc2CN(C)Cc2ccccn2)c(OC)c1             inhibition                 %            4.69
39       N=c1c2ccccc2nnn1-c1ccc(C(F)(F)F)cc1             inhibition                 %           -1.84
40  CCOc1ccccc1N1CCN(CC(O)COCc2cccs2)CC1 (stereo not given)             inhibition                 %               7
41  COc1ccc(C(CCN(Cc2ccc(OC)c(OC)c2)C(C)=O)c2ccccc2)cc1 (stereo not given)             inhibition                 %           -0.43
42  CN1C(=O)CC(N2CCN(CCN=CC3=C(O)CC(C)(C)CC3=O)CC2)C1=O (stereo not given)             inhibition                 %            9.46
43  CC(C)c1ccc(CCNC(=O)c2cccc(S(=O)(=O)N3CCN(C)CC3)c2)cc1             inhibition                 %           -4.06
44           COc1ccc2cc(Br)ccc2c1CC(=O)N(C)C             inhibition                 %            8.82
